Overview of reported normalized growth across a group of compounds:
# test.name: chemical genetic growth profiling, strain panel (AID 1159580);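 note: tested at 20 µM; growth read once vehicle control cultures reached saturation at 30 °C; 1 = growth at the plate median or of vehicle wells; lower values mean less growth of the strain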
# test.parameters: S. cerevisiae deletion strains, growth OD, locus YGR135W, strain pre9, stronger effect = lower value
Hit rate of the full screen: of about 5,500 compounds, about 2,000 (36%) were called active. Another 18% or so got no clear call; they are omitted. The list shows a part of the results.

compound	normalized growth
O=C(O)c1cc(=O)c2c(OCC(O)COc3cccc4oc(C(=O)O)cc(=O)c34)cccc2o1	1.02
CN1CCc2cccc3c2C1Cc1ccc(O)c(O)c1-3 (configuration not stated)	1
CCOC(=O)c1ccc(N)cc1	0.99
CC(=O)OC/C=C(C)/C=C/C=C(C)/C=C/C1=C(C)CCCC1(C)C	0.984
CC(=O)O[C@H]1CC[C@@]2(C)C(=CCC3C2CC[C@@]2(C)C3CC[C@@H]2C(C)CCCC(C)C)C1 (some centres not stated)	1.02
Cc1ccc(C(C)C)cc2c(C)ccc1-2	1.03
CCN(CC)CCOC(=O)C(Cc1cccc2ccccc12)CC1CCCO1 (configuration not stated)	0.998

Attribution: PubChem BioAssay AID1159580
